- TARGET OF ASSAY: WT M2 (Influenza A virus, UniProt P0DOF5)
- Sequence (P0DOF5 whole entry, looked up): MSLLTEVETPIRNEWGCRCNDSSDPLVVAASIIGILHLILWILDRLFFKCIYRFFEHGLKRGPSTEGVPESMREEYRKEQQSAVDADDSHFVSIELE
- METHOD NOTES: cell-based
- STUDY CONDITIONS: read-out: % inhibition at 100 µM in TEVC WT
MEASURED ATTRIBUTE: inhibition at 100 µM (%)

- CCSC1=NCN(Cc2ccco2)CN1 [Compound 24]: 17.9
- NC(N)=NC(=O)c1nc(Cl)c(N2CCCCCC2)nc1N [Compound 14, Hexamethylene amiloride]: 89.9
- CCSC1=NCN(CCc2cccs2)CN1 [Compound 30]: 1.1
- NC12CC3CC(CC(C3)C1)C2 [Amantadine, reference compound]: 92
